# Test system: PF3D7_0420300 AP2 domain 1 (GST-tagged)
# assay.name: gcPBM binding intensity (ln(normalized median fluorescence intensity)); higher = stronger DNA binding
In all, about 25,000 sequences were measured (“ln(normalized median fluorescence intensity)”: median about 9.3, highest 2% from about 10 on). Shown is part of a subset that was picked to be rich in the highest values.
Measured gcPBM binding intensity (ln) values are reported for all entries that follow.
property.measured: gcPBM binding intensity (ln)

TGTTGATTTATCCTGTGTACGGATATATATCTTTCA [XGTACX_site7826]
9.27
ATACTAAAGAAACACACACACATATATATATAGAAT [CACACA_site100]
10.3
CAACAAAAGAAACACACACACACAAACACAAAAAAA [CACACA_site3389]
10
ATGGTAGTGATTAAAAGTACACGTAATTGTAAAAAT [XGTACX_site387]
9.45
TTAACAAAGAAACACACACACACACCCAAAAAAAAA [CACACA_site516]
10.2
TAATATACTTAATACACACACGAATATTTATAAATA [CACACA_site6675]
9.73
TTTTTTATATATGTGTGTGTGTGTGTGTCAAGTTTA [GTGCAC_negctrl_site460]
10.3
ATTTATTTATCAAATATTATCTTAAAAAAAAAAGAA [CACACA_negctrl_site1345]
8.79
AATTAGATACTAACAAGTACATATATATATATATAT [XGTACX_site2252]
9.59

###

Measured gcPBM binding intensity (ln) values are reported for all entries that follow.
# System: PF3D7_0420300 AP2 domain 1 (GST-tagged)
# assay.name: gcPBM binding intensity (ln(normalized median fluorescence intensity)); higher = stronger DNA binding
Whole data set: some 25,000 sequences, median “ln(normalized median fluorescence intensity)” near 9.3, cut for the highest 2% near 10. This is one part of a sample in which the highest values are shown more often than they occur.
property.measured: gcPBM binding intensity (ln)

AATATGTAGTAATCAAGTACTAATGTCTTAATTCGG [XGTACX_site308]
9.27
AAGAAAATATAAAATGCACACTATAAATTGTATATA [CACACA_site7928]
9.51
TATATATATATATATACACACACACTAATAAAAAAA [CACACA_site8426]
10
TCTTCTTAACCAACTATGAAAAGGAAAAATATAACA [GTGCAC_negctrl_site565]
9.06
AAAAAAAAAAAACACACACACACACTAATATATAAA [CACACA_site8302]
10.2
CAATCATTTTATTGTTGTACAGTAATTATGAATTCA [XGTACX_site7508]
9.03
TGTAATAATCTTCATTTCTTTTTTTTTTTTTTTTGT [CACACA_negctrl_site1388]
8.96
ATAATATATAAACACACACACATATATAAATACATT [CACACA_site4466]
10.1
AATTCTTTCATATATTGTACGTATTCCCATAAAATA [XGTACX_site5923]
9.36
AAATTTGGCAAACACACACACACACCCACAGAGACA [CACACA_site4490]
10.3
AGACAGCGCACAAACACACAAACACCCACCCACATA [CACACA_site451]
10.2
AAATTTGGCAAACACACACACACACCCACACCCACA [CACACA_site8095]
10.2
AACTTTGGCAAACACACACACACACCCACACCCACA [CACACA_site588]
10.3
TAATTTTTTTAAGAGAGTACATGACTCAACAGTTTA [XGTACX_site3103]
8.76
ATAATCCACAAGCACACACACACACCCATATATATA [CACACA_site1268]
10.2
ATAAATAAAGGACACACACACACACTAGAAAAAAAA [CACACA_site5450]
10
CTAAAAATTTTAATTGCACACCACGTTGGACTATTT [CACACA_site1489]
9.24
TAATAATCCACAAGCACACACACACCCATATATATA [CACACA_site1267]
10
ATAAATAAAGGACACACACACACACTAATAAAAAAA [CACACA_site8840]
10.3
TGGGAATAAAAACACACACACACACCGATATATATA [CACACA_site5875]
10.3
AAAAGGTATGTTATACATAGATATGCACATATATGT [TGCATGCA_negctrl_site96]
9.29
ATTAAATATATTTTGCGTACACAAAAAAATACGTTC [XGTACX_site3862]
9.15
TGCAACAAAATAAACACACACACACTAACACAAAAA [CACACA_site7567]
10.1
GGCAAATTTATTATACCCACATACATACATACATAC [XGTACX_negctrl_site186]
9.24
ATAAAAATAAAATGGACACACATATATACATATTTG [CACACA_site3277]
9.68
ATTTAATTTTTTTTTAAACACACATTTTTTTATTTA [CACACA_site8880]
9.36
ATATTAACTTTTATTACACACTCTCAACTTTTATTT [CACACA_site6176]
9.72
ATATAAGTATATCTATGTACATACAATATAAATGTA [XGTACX_site2153]
9.09
AAAAAAAACATCCTCACACATATATATATATATATA [CACACA_site5166]
9.18
AAATAATATAAACATACACACACACCGATATATATA [CACACA_site8945]
10.2
AATAAATATAAAAATGCACACACACTAATAAAAAAA [CACACA_site8201]
10.2
ATAATATAAACATACACACACACATATATATATATA [CACACA_site5591]
10
ATAAGAAAAAAGAACTGTACTAATAAAATATAAAAA [XGTACX_site3715]
9.3
ATAATAAAAAAAAATGCACACATATATATATATATA [CACACA_site8766]
9.21
CTTCAATTAAAATTCACACATATAAATTAAAATATT [CACACA_site6129]
9.06
ATATTGTAAGTAAACACACACACATCTATAGGTATA [CACACA_site6462]
9.96
GTTTAAAAAAATTATCAACTTTAAAAAGGTAACATT [XGTACX_negctrl_site203]
8.99
TTTAGTGTTATAAAAAGTACATAATAATTCCTTTTC [XGTACX_site3208]
8.95
